Test: Liver microsomes stability, dog
Details: Dog liver microsomes
OBSERVED PROPERTY: Predicted hepatic CL (mL/min/kg)

CCCCC/C=C\C/C=C\CCCCCCCC(=O)n1cc(CCN(C)C)c2ccccc21 18.69
CCCCC/C=C\C/C=C\CCCCCCCC(=O)n1cc(C[C@H]2CCCN2C)c2ccccc21 21.51
CCCCC/C=C\C/C=C\CCCCCCCC(=O)n1cc(C[C@H]2CCCN2C)c2cc(OC)ccc21 22.75
[2H]C([2H])(c1cn(C(=O)CCCCCCC/C=C\C/C=C\CCCCC)c2ccccc12)[C@H]1CCCN1C([2H])([2H])[2H] 22.14

* * *

Assay: Liver microsomes stability, mouse
Conditions: Mouse, With NADPH, 60 min
Description: The objective of this study was to estimate in vitro metabolic stability of representative compounds of the application in pooled human and male mouse liver microsomes. The concentrations of parent compounds in reaction systems were evaluated by LC-MS/MS for estimating the stability in pooled human and male mouse liver microsomes. The in vitro intrinsic clearances of test compounds were determined as well. […] The in vitro half-life (in vitro t1/2) was determined from the slope value: […]
OBSERVED PROPERTY: Remaining Percentage (%)

[2H]C([2H])(c1cn(C(=O)CCCCCCC/C=C\C/C=C\CCCCC)c2ccccc12)[C@H]1CCCN1C([2H])([2H])[2H] 44.66
CCCCC/C=C\C/C=C\CCCCCCCC(=O)n1cc(C[C@H]2CCCN2C)c2ccccc21 58.84
CCCCC/C=C\C/C=C\CCCCCCCC(=O)n1cc(CCN(C)C)c2ccccc21 95.29
CCCCC/C=C\C/C=C\CCCCCCCC(=O)n1cc(C[C@H]2CCCN2C)c2cc(OC)ccc21 69.51

* * *

Assay: Liver microsomes stability, mouse
Details: male, mouse, microsomes
Protocol: The objective of this study was to estimate in vitro metabolic stability of representative compounds of the application in pooled human and male mouse liver microsomes. The concentrations of parent compounds in reaction systems were evaluated by LC-MS/MS for estimating the stability in pooled human and male mouse liver microsomes. The in vitro intrinsic clearances of test compounds were determined as well. […] The in vitro half-life (in vitro t1/2) was determined from the slope value: […]
OBSERVED PROPERTY: CLint scaled at 2 μM (mL/min/kg)

COMPOUND	RESULT VALUE
CCCCC/C=C\C/C=C\CCCCCCCC(=O)n1cc(C[C@H]2CCCN2C)c2cc(OC)ccc21 [Compound I-6]	53
CCCCC/C=C\C/C=C\CCCCCCCC(=O)n1cc(CCN(C)C)c2ccccc21 [Compound I-8]	7.03
[2H]C([2H])(c1cn(C(=O)CCCCCCC/C=C\C/C=C\CCCCC)c2ccccc12)[C@H]1CCCN1C([2H])([2H])[2H] [Compound I-2]	118
CCCCC/C=C\C/C=C\CCCCCCCC(=O)n1cc(C[C@H]2CCCN2C)c2ccccc21 [Compound I-5]	77.3

* * *

Test: Liver microsomes stability, rat
Details: Rat, With NADPH, 60 min
OBSERVED PROPERTY: Remaining Percentage (%)

CCCCC/C=C\C/C=C\CCCCCCCC(=O)n1cc(C[C@H]2CCCN2C)c2cc(OC)ccc21 72.53
[2H]C([2H])(c1cn(C(=O)CCCCCCC/C=C\C/C=C\CCCCC)c2ccccc12)[C@H]1CCCN1C([2H])([2H])[2H] 40.37
CCCCC/C=C\C/C=C\CCCCCCCC(=O)n1cc(CCN(C)C)c2ccccc21 75.35
CCCCC/C=C\C/C=C\CCCCCCCC(=O)n1cc(C[C@H]2CCCN2C)c2ccccc21 46.98

* * *

Test: Liver microsomes stability, human
Settings: Human, Without NADPH, 30 min
OBSERVED PROPERTY: Remaining Percentage (%)

[2H]C([2H])(c1cn(C(=O)CCCCCCC/C=C\C/C=C\CCCCC)c2ccccc12)[C@H]1CCCN1C([2H])([2H])[2H] 114.91
CCCCC/C=C\C/C=C\CCCCCCCC(=O)n1cc(C[C@H]2CCCN2C)c2cc(OC)ccc21 89.58
CCCCC/C=C\C/C=C\CCCCCCCC(=O)n1cc(CCN(C)C)c2ccccc21 91.04
CCCCC/C=C\C/C=C\CCCCCCCC(=O)n1cc(C[C@H]2CCCN2C)c2ccccc21 85.69

* * *

Experiment: Liver microsomes stability, mouse
Settings: Mouse liver microsomes
# Predicted hepatic CL listing for each entry below

COMPOUND	Predicted hepatic CL (mL/min/kg)
[2H]C([2H])(c1cn(C(=O)CCCCCCC/C=C\C/C=C\CCCCC)c2ccccc12)[C@H]1CCCN1C([2H])([2H])[2H] [Compound I-2]	50.97
CCCCC/C=C\C/C=C\CCCCCCCC(=O)n1cc(CCN(C)C)c2ccccc21 [Compound I-8]	6.52
CCCCC/C=C\C/C=C\CCCCCCCC(=O)n1cc(C[C@H]2CCCN2C)c2ccccc21 [Compound I-5]	41.60
CCCCC/C=C\C/C=C\CCCCCCCC(=O)n1cc(C[C@H]2CCCN2C)c2cc(OC)ccc21 [Compound I-6]	33.37

* * *

Listed next: entries and their corresponding Remaining Percentage (%).
Assay: Liver microsomes stability, dog
Conditions: Dog, Without NADPH, 30 min
OBSERVED PROPERTY: Remaining Percentage (%)

CCCCC/C=C\C/C=C\CCCCCCCC(=O)n1cc(CCN(C)C)c2ccccc21 84.36
[2H]C([2H])(c1cn(C(=O)CCCCCCC/C=C\C/C=C\CCCCC)c2ccccc12)[C@H]1CCCN1C([2H])([2H])[2H] 94.42
CCCCC/C=C\C/C=C\CCCCCCCC(=O)n1cc(C[C@H]2CCCN2C)c2ccccc21 87.66
CCCCC/C=C\C/C=C\CCCCCCCC(=O)n1cc(C[C@H]2CCCN2C)c2cc(OC)ccc21 84.09

* * *

Test: Liver microsomes stability, mouse
Conditions: Mouse, With NADPH, 30 min
Experimental: The objective of this study was to estimate in vitro metabolic stability of representative compounds of the application in pooled human and male mouse liver microsomes. The concentrations of parent compounds in reaction systems were evaluated by LC-MS/MS for estimating the stability in pooled human and male mouse liver microsomes. The in vitro intrinsic clearances of test compounds were determined as well. […] The in vitro half-life (in vitro t1/2) was determined from the slope value: […]
Item-by-item account of Remaining Percentage (%)
OBSERVED PROPERTY: Remaining Percentage (%)

CCCCC/C=C\C/C=C\CCCCCCCC(=O)n1cc(C[C@H]2CCCN2C)c2ccccc21 74.79
[2H]C([2H])(c1cn(C(=O)CCCCCCC/C=C\C/C=C\CCCCC)c2ccccc12)[C@H]1CCCN1C([2H])([2H])[2H] 71.53
CCCCC/C=C\C/C=C\CCCCCCCC(=O)n1cc(C[C@H]2CCCN2C)c2cc(OC)ccc21 76.15
CCCCC/C=C\C/C=C\CCCCCCCC(=O)n1cc(CCN(C)C)c2ccccc21 105.41

* * *

Assay: Liver microsomes stability, human
Settings: Human, With NADPH, 30 min
OBSERVED PROPERTY: Remaining Percentage (%)

[2H]C([2H])(c1cn(C(=O)CCCCCCC/C=C\C/C=C\CCCCC)c2ccccc12)[C@H]1CCCN1C([2H])([2H])[2H] 87.61
CCCCC/C=C\C/C=C\CCCCCCCC(=O)n1cc(C[C@H]2CCCN2C)c2cc(OC)ccc21 91.33
CCCCC/C=C\C/C=C\CCCCCCCC(=O)n1cc(CCN(C)C)c2ccccc21 91.39
CCCCC/C=C\C/C=C\CCCCCCCC(=O)n1cc(C[C@H]2CCCN2C)c2ccccc21 86.52

* * *

Measured Predicted hepatic CL, listed per entry for reference.
Test: Liver microsomes stability, human
Details: Human liver microsomes
OBSERVED PROPERTY: Predicted hepatic CL (mL/min/kg)

CCCCC/C=C\C/C=C\CCCCCCCC(=O)n1cc(C[C@H]2CCCN2C)c2ccccc21 6.42
CCCCC/C=C\C/C=C\CCCCCCCC(=O)n1cc(C[C@H]2CCCN2C)c2cc(OC)ccc21 4.62
CCCCC/C=C\C/C=C\CCCCCCCC(=O)n1cc(CCN(C)C)c2ccccc21 2.16
[2H]C([2H])(c1cn(C(=O)CCCCCCC/C=C\C/C=C\CCCCC)c2ccccc12)[C@H]1CCCN1C([2H])([2H])[2H] 5.79

* * *

Assay: Liver microsomes stability, human
Conditions: Human, With NADPH, 60 min
OBSERVED PROPERTY: Remaining Percentage (%)

CCCCC/C=C\C/C=C\CCCCCCCC(=O)n1cc(C[C@H]2CCCN2C)c2cc(OC)ccc21 86.76
CCCCC/C=C\C/C=C\CCCCCCCC(=O)n1cc(CCN(C)C)c2ccccc21 94.38
CCCCC/C=C\C/C=C\CCCCCCCC(=O)n1cc(C[C@H]2CCCN2C)c2ccccc21 80.05
[2H]C([2H])(c1cn(C(=O)CCCCCCC/C=C\C/C=C\CCCCC)c2ccccc12)[C@H]1CCCN1C([2H])([2H])[2H] 82.52
